// data source = paper PMC6194023

# Test system: EGFR (Homo sapiens, UniProt P00533)
# Sequence (P00533 25-1210): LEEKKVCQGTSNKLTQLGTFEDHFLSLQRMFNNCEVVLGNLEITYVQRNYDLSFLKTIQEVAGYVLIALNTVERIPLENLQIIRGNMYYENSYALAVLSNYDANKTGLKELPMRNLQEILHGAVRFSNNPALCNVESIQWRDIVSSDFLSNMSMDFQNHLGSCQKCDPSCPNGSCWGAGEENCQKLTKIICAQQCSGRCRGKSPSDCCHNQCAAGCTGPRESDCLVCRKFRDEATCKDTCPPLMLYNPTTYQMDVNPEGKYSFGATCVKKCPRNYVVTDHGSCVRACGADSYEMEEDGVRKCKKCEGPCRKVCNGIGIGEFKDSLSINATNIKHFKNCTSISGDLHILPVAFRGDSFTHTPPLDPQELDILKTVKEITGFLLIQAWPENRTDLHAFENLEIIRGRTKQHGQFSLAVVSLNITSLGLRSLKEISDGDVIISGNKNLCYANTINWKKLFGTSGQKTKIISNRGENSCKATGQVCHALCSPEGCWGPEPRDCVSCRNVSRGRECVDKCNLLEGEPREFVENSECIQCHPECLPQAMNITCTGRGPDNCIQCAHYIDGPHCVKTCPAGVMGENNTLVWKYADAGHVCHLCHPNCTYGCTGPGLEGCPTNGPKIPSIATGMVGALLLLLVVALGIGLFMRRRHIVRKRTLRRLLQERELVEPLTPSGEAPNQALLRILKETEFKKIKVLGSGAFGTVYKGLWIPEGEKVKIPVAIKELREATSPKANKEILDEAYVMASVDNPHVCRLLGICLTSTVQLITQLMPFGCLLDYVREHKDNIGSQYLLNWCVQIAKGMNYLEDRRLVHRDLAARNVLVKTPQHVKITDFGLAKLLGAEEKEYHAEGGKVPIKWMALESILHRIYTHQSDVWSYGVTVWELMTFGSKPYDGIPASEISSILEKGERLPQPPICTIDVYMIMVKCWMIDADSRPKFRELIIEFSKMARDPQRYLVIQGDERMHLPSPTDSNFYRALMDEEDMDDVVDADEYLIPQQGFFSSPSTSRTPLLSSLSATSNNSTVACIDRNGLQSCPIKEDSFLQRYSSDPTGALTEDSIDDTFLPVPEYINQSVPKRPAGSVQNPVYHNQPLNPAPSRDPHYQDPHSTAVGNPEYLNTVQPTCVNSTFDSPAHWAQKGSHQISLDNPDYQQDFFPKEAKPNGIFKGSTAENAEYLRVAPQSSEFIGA
# Test: kinase activity in vitro
# Format: biochemical
Property measured: pIC50
Reminder that pIC50 means the negative base-10 logarithm of the concentration expressed in mol/L.

# lookup: pIC50 of CC(=O)Nc1nccc(-c2ccc3c(/C=C/c4ccc(CN(C)C)cc4)n[nH]c3c2)n1 [YLT-11] 6.18

* * *

# Test system: PLK1 (Homo sapiens, UniProt P53350)
# Sequence (P53350 whole entry): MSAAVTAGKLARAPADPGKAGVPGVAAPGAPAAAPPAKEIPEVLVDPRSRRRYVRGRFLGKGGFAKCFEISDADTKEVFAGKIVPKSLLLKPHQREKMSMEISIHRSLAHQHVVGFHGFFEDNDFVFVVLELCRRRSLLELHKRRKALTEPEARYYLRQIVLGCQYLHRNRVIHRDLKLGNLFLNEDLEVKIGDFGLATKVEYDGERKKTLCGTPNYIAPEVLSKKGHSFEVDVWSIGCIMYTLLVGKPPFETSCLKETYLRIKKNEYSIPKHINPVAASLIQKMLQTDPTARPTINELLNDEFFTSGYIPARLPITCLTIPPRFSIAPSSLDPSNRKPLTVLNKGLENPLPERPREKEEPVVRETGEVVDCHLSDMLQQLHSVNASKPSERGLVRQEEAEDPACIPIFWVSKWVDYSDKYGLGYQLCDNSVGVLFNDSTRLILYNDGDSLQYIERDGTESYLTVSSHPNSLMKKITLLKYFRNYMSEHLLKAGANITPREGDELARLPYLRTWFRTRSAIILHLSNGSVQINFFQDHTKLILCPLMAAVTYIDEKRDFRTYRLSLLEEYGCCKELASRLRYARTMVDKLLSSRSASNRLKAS
Property measured: IC50 (µM)
Please give a number only; it is taken to be in µM.

// fetch PLK1 (Homo sapiens, UniProt P53350) IC50 for CC(=O)Nc1nccc(-c2ccc3c(/C=C/c4ccc(CN(C)C)cc4)n[nH]c3c2)n1 4.78
